target: recombinant human SYK (GST-hSYK fusion protein) (Homo sapiens (Human), UniProt P43405)
runConditions: read-out: rhSYK Activity; Table 113A
// reported IC50 for each item listed

Solved entries (count: 4):
molecule="CCOC(=O)C1CCC(O)(c2ncc(-c3cc(C)cc(Nc4nccc(OCCCOC)n4)c3)s2)CC1C (centres unmarked) [Example 113A-47]" result="0.1 to 1 µM"
molecule="Cc1cc(Nc2ncc(F)c(C)n2)cc(-c2cnc([C@@]3(O)CC[C@H](C(=O)O)[C@H](C)C3)s2)c1 [Example 113A-18]" result="< 0.1 µM"
molecule="COc1ccnc(Nc2cc(C)cc(-c3cnc([C@]4(O)CC[C@@H](C(=O)O)[C@@H](C)C4)s3)c2)n1 [Example 113A-17]" result="< 0.1 µM"
molecule="COC(=O)[C@H]1CC[C@](O)(c2ncc(-c3cc(C)cc(Nc4nccc(C(F)(F)F)n4)c3)s2)CC1(C)C [Example 113A-65]" result="< 0.1 µM"

Value of measured IC50 for the entry CCOC(=O)C1CCC(O)(c2ncc(-c3cc(C)cc(Nc4nccc(C(F)(F)F)n4)c3)s2)C(C)C1C (centres unmarked) [Example 113A-77] : < 0.1 µM

* * *

target: UniProtKB P43405
testMethodNotes: biochemical
pIC50: −log10 of the molar value.
quantity: pIC50

Answered cases to consult:
molecule=O=C(NC1CC1)[C@H]1CC[C@H](c2ncc(-c3cccc(Nc4nccc(C(F)(F)F)n4)c3)s2)CC1 result="> 7.00"
molecule="CCNC(=O)Nc1cc(Nc2nccc(C(F)(F)F)n2)cc(-c2cnc(C3CCC(C(N)=O)CC3)s2)c1 (single isomer, unassigned)" result="> 7.00"

Sample `O=C(O)[C@H]1CC[C@H](c2ncc(-c3cccc(Nc4nccc(C(F)(F)F)n4)c3)s2)CC1` ; pIC50 observed: > 7.00

* * *

target: UniProtKB P43405
runConditions: read-out: rhSYK activity
quantity: IC50

Sample answers from the record:
compound="CC(O)(CO)c1ncc(-c2cccc(Nc3nccc(C(F)(F)F)n3)c2)s1 (single isomer, unassigned) [Ex 5-2]" quantity=IC50 result="< 100 nM"
compound="OC(c1ncc(-c2cccc(Nc3nccc(C(F)(F)F)n3)c2)s1)C1CC1 (centres unmarked)" quantity=IC50 result="< 100 nM"
compound="Cc1cc(Nc2nccc(C(F)(F)F)n2)cc(-c2cnc(C3(O)C=CCCCC3)s2)c1 (centres unmarked)" quantity=IC50 result="< 100 nM"
compound="Cc1cc(Nc2nccc(C)n2)cc(-c2cnc(C3(O)CCNC(=O)CC3)s2)c1 (centres unmarked)" quantity=IC50 result="< 100 nM"

Recorded result, `Fc1ccc(Nc2nccc(C(F)(F)F)n2)cc1Br` , IC50: 1000 to 10000 nM

* * *

IC50 reference
target: recombinant human SYK (GST-hSYK fusion protein) (Homo sapiens (Human))
runConditions: read-out: rhSYK Activity; Table 33-A

Study these solved cases before continuing.
molecule="Cc1cc(Nc2ncc(F)c(C3CC3)n2)cc(-c2cnc(C3(O)CCC(C(=O)O)CC3)s2)c1 (stereo not drawn) [33A-2]" target="recombinant human SYK (GST-hSYK fusion protein) (Homo sapiens (Human))" result="< 100 nM"
molecule="CCOC(=O)C1CCC(O)(c2ncc(-c3cc(C)cc(Nc4nccc(C(F)(F)F)n4)c3)s2)CC1 (stereo not drawn) [33A-7]" target="recombinant human SYK (GST-hSYK fusion protein) (Homo sapiens (Human))" result="< 100 nM"

IC50 on recombinant human SYK (GST-hSYK fusion protein) (Homo sapiens (Human)) for Cc1cc(Nc2ncc(F)c(C3CC3)n2)cc(-c2cnc(C3(O)CCC(C(=O)O)CC3)s2)c1 (stereo not drawn) [33A-1] is < 100 nM

* * *

target: recombinant human SYK (GST-hSYK fusion protein) (Homo sapiens (Human), UniProt P43405)
testMethodNotes: biochemical
pIC50: −log10 of the molar value.
quantity: pIC50

Previously resolved entries follow.
molecule=CC(C)(c1ncc(-c2cc(F)cc(Nc3nccc(C(F)(F)F)n3)c2)s1)S(N)(=O)=O quantity=pIC50 result=6.09
molecule="Cc1cc(Nc2nccc(C(F)(F)F)n2)cc(-c2cnc(C3CCC(C(N)=O)C(C)(C)C3)s2)c1 (single isomer, unassigned)" quantity=pIC50 result="6.00 to 7.00"
molecule=Cc1cc(Nc2nccc(C(F)(F)F)n2)cc(-c2cnc([C@@](O)(CO)c3ccc(C(=O)O)cc3)s2)c1 quantity=pIC50 result="> 7.00"
molecule=CC(C)(C)OC(=O)N1CC(Oc2ccnc(Nc3cc(N)cc(-c4cnc(C5(O)CCC5)s4)c3)n2)C1 quantity=pIC50 result="6.00 to 7.00"
molecule="Cc1cc(Nc2nccc(C(F)(F)F)n2)cc(-c2cnc(C3(O)CCC(NC(=O)C4CCCOC4)CC3)s2)c1 (centres unmarked) [Example 54E-18]" quantity=pIC50 result="> 7.00"

Entry COc1ccnc(Nc2cc(C)cc(-c3cnc([C@]4(F)CC[C@@H](C(=O)O)CC4)s3)c2)n1 [Example 113D-13] : pIC50 on recombinant human SYK (GST-hSYK fusion protein) (Homo sapiens (Human), UniProt P43405) = > 7.00

Noted pIC50 for `CC(=O)Nc1cc(Nc2nccc(OC3CCN(C(C)=O)CC3)n2)cc(-c2cnc(C3(O)CCC3)s2)c1` , tested on recombinant human SYK (GST-hSYK fusion protein) (Homo sapiens (Human), UniProt P43405): > 7.00

recombinant human SYK (GST-hSYK fusion protein) (Homo sapiens (Human), UniProt P43405) data for `COC(=O)C(C)(C)Cc1ncc(-c2cc(C)cc(Nc3nccc(C(F)(F)F)n3)c2)s1` ; its pIC50: > 7.00

* * *

target: recombinant human SYK (GST-hSYK fusion protein) (Homo sapiens (Human), UniProt P43405)
runConditions: read-out: rhSYK Activity; Table 15
pIC50: −log10 of the molar value.
Measured pIC50 values are reported for all entries that follow.

compound=OC(c1ncc(-c2cccc(Nc3nccc(C(F)(F)F)n3)c2)s1)(C1CC1)C1CC1 result="> 7.00"

Read the next record carefully.
Bench note, recombinant human SYK (GST-hSYK fusion protein) (Homo sapiens (Human), UniProt P43405): CC(O)(c1ncc(-c2cccc(Nc3nccc(C(F)(F)F)n3)c2)s1)C1CC1 (centres unmarked) , pIC50 reads > 7.00

* * *

target: recombinant human SYK (GST-hSYK fusion protein) (Homo sapiens (Human), UniProt P43405)
runConditions: read-out: rhSYK Activity; Table 33D
Catalogue of compounds with associated IC50

Examples with their reported IC50 follow.
compound="Cc1cc(Nc2nccc(C(F)(F)F)n2)cc(-c2cnc(C(C)(O)c3ccc(C(=O)O)cc3)s2)c1 (stereo not drawn) [Example 33D-16]" result="< 100 nM"
compound="Cc1cc(Nc2nccc(C(F)(F)F)n2)cc(-c2cnc(C(C)(O)/C=C/C(C)(C)C(=O)O)s2)c1 (stereo not drawn) [Example 33D-5]" result="< 100 nM"
compound="COC(=O)C(C)(C)/C=C/C(C)(O)c1ncc(-c2cc(C)cc(Nc3nccc(C(F)(F)F)n3)c2)s1 (stereo not drawn) [Example 33D-6]" result="< 100 nM"
compound="Cc1cc(Nc2nccc(C(F)(F)F)n2)cc(-c2cnc(C(C)(O)c3ccc(NC(=O)CCC(=O)O)cc3)s2)c1 (stereo not drawn) [Example 33D-14]" result="< 100 nM"
compound="Cc1cc(Nc2nccc(C(F)(F)F)n2)cc(-c2cnc(C(C)(O)c3ccc(NC(=O)CCCC(=O)O)cc3)s2)c1 (stereo not drawn) [Example 33D-15]" result="< 100 nM"

Shifting focus to the compound that follows.
response.value for COC(=O)c1ccc(C(C)(O)c2ncc(-c3cc(C)cc(Nc4nccc(C(F)(F)F)n4)c3)s2)cc1 (stereo not drawn) [Example 33D-17] (field: IC50) = 100 to 1000 nM

* * *

Below, each entry is listed alongside its reported pIC50.
target: rhSYK (Homo sapiens (Human))
runConditions: read-out: rhSYK activity
pIC50: −log10 of the molar value.

Sample records with pIC50:
molecule=OC1(c2ncc(-c3cc(Cl)cc(Nc4nccc(C(F)(F)F)n4)c3)s2)CCC1 result="6.00 to 7.00"
molecule="Cc1cc(Nc2nccc(C)n2)cc(-c2cnc(C3(O)CCC(N)(C(=O)O)CC3)s2)c1 (stereo not shown)" result="> 7.00"
molecule=COc1ccnc(Nc2cc(C)cc(-c3cnc(C4(O)CCC5(CC4)OCCO5)s3)c2)n1 result="> 7.00"

Short answer for `CC(C)(O)c1ncc(-c2cc(Nc3nccc(C(F)(F)F)n3)cc(C3CC3)c2)s1` : pIC50 was > 7.00

Data point: Cc1cc(Nc2nccc(C(F)(F)F)n2)cc(-c2cnc(C(C)(O)c3ccc(C(C)(C)O)cc3)s2)c1 (stereo not shown) ; pIC50 = 6.00 to 7.00

According to the records, this molecule FC(F)(F)c1ccnc(Nc2cccc(-c3cncs3)c2)n1 [Intermediate 7] displays pIC50 of 6.00 to 7.00
